procedure details: Metabolic stability after incubation with human liver microsomes (LC-MS/MS)
Assay type: in vitro ADME
run parameters: human, human liver microsomes, pH 7.4, in mixture of ENF and BNB, 1 µM, HLM 1 mg/mL, NADPH 1 mM, 37 °C; read-out: in vitro t1/2 (half-life)
measured attribute: half-life at 1 µM (min)

# chem smiles, unit, reading
data = [
    ("Cn1cnc2c(F)c(Nc3ccc(Br)cc3F)c(C(=O)NOCCO)cc21", "min", 58.2),
    ("COC(=O)N[C@@H](C)CNc1nccc(-c2cn(C(C)C)nc2-c2cc(Cl)cc(NS(C)(=O)=O)c2F)n1", "min", 45.9),
]
